- System: histone modifications in 2102EP cells
- PROTOCOL: Mass spectrometry analysis of histone modifications (Mod Spec)
- Assay type: cell-based, Human
- STATED_CONDITIONS: 2102EP cells; Mod Spec raw data
Reported H3.3: K27M, % of peptide pool values are given for each entry in this list.
Quick reminder: number only, in %, skip the unit.

Sample records with H3.3: K27M, % of peptide pool:
| SMILES_REPRESENTATION | ENDPOINT_RESULT |
| --- | --- |
| O=C1C(=Cc2cccnc2)C(=O)c2ccccc21 | 0 |
| Clc1ccc(N/N=C(\c2ccccc2)c2ccccn2)nc1 | 0 |

Next item in the queue.
[ask] # H3.3: K27M, % of peptide pool lookup, item CN1C(=O)[C@@]23C[C@]4([C@]56C[C@@]78SS[C@@](CO)(C(=O)N7[C@H]5Nc5ccccc56)N(C)C8=O)c5ccccc5N[C@@H]4N2C(=O)[C@]1(CO)SS3
[reply] 0

====

- Tested on: histone modifications in 2102EP cells
- PROTOCOL: Mass spectrometry analysis of histone modifications (Mod Spec)
- Format: cell-based, Human
- STATED_CONDITIONS: 2102EP cells; Mod Spec raw data
READOUT_TYPE: H3.3: K36ME3, % of peptide pool (%)
Quick reminder: number only, in %, skip the unit.

| SMILES_REPRESENTATION | ENDPOINT_RESULT |
| --- | --- |
| Clc1ccc(N/N=C(\c2ccccc2)c2ccccn2)nc1 | 20.5666 |

[ask] # H3.3: K36ME3, % of peptide pool lookup, item CN1C(=O)[C@@]23C[C@]4([C@]56C[C@@]78SS[C@@](CO)(C(=O)N7[C@H]5Nc5ccccc56)N(C)C8=O)c5ccccc5N[C@@H]4N2C(=O)[C@]1(CO)SS3
[reply] 22.3154

[ask] And for Cc1cc(=O)n(C)c2cc(N3C(=O)CC[C@H](NS(=O)(=O)CC(C)C)[C@H]3c3ccc(Cl)cc3)ccc12 ?
[reply] 19.8606

====

- Tested on: histone modifications in 2102EP cells
- PROTOCOL: Mass spectrometry analysis of histone modifications (Mod Spec)
- Type: cell-based, Human
- STATED_CONDITIONS: 2102EP cells; Mod Spec raw data; histone H4 K16 unmodified
- Procedure: 2102EP cells were treated with the EC50 concentrations for Quisinostat, JIB-04, Chaetocin, MZ-1, LP99, PRT4165, GSK343 and DMSO as solvent control. The cells were harvested via trypsinization after 16 h. The mass spectrometric analysis of histone modifications was outsourced to the Mod Spec service by Active Motif (Carlsbad, CA, USA). Histone extraction and mass spectrometric analysis was performed as described previously. Raw data were transformed into z-scores as the input. […]
Reported H4: K16UN, % of peptide pool values are given for each entry in this list.

Sample records with H4: K16UN, % of peptide pool:
| SMILES_REPRESENTATION | ENDPOINT_RESULT |
| --- | --- |
| CCCc1cc(C)[nH]c(=O)c1CNC(=O)c1cc(-c2ccnc(N3CCN(C)CC3)c2)cc2c1cnn2C(C)C | 58.4304 % of peptide pool |
| CN1C(=O)[C@@]23C[C@]4([C@]56C[C@@]78SS[C@@](CO)(C(=O)N7[C@H]5Nc5ccccc56)N(C)C8=O)c5ccccc5N[C@@H]4N2C(=O)[C@]1(CO)SS3 | 51.185 % of peptide pool |
| Clc1ccc(N/N=C(\c2ccccc2)c2ccccn2)nc1 | 53.3178 % of peptide pool |

[ask] # H4: K16UN, % of peptide pool lookup, item Cc1cc(=O)n(C)c2cc(N3C(=O)CC[C@H](NS(=O)(=O)CC(C)C)[C@H]3c3ccc(Cl)cc3)ccc12
[reply] 57.6255 % of peptide pool

====

- Tested on: histone modifications in 2102EP cells
- PROTOCOL: Mass spectrometry analysis of histone modifications (Mod Spec)
- Type: cell-based, Human
- STATED_CONDITIONS: 2102EP cells; Mod Spec raw data
READOUT_TYPE: H3.1: K27UN, % of peptide pool (%)
Quick reminder: number only, in %, skip the unit.

| SMILES_REPRESENTATION | READOUT_TYPE | ENDPOINT_RESULT |
| --- | --- | --- |
| Cc1ncsc1-c1ccc(CNC(=O)[C@@H]2C[C@@H](O)CN2C(=O)[C@@H](NC(=O)COCCOCCOCCNC(=O)C[C@@H]2N=C(c3ccc(Cl)cc3)c3c(sc(C)c3C)-n3c(C)nnc32)C(C)(C)C)cc1 | H3.1: K27UN, % of peptide pool | 28.7602 |
| O=C1C(=Cc2cccnc2)C(=O)c2ccccc21 | H3.1: K27UN, % of peptide pool | 24.0551 |
| Cn1cc(CNCC2CCN(c3ncc(C(=O)NO)cn3)CC2)c2ccccc21 | H3.1: K27UN, % of peptide pool | 27.08 |

[ask] histone modifications in 2102EP cells / H3.1: K27UN, % of peptide pool / CCCc1cc(C)[nH]c(=O)c1CNC(=O)c1cc(-c2ccnc(N3CCN(C)CC3)c2)cc2c1cnn2C(C)C : value?
[reply] 30.5467

[ask] And for CN1C(=O)[C@@]23C[C@]4([C@]56C[C@@]78SS[C@@](CO)(C(=O)N7[C@H]5Nc5ccccc56)N(C)C8=O)c5ccccc5N[C@@H]4N2C(=O)[C@]1(CO)SS3 ?
[reply] 28.0999

[ask] And for Clc1ccc(N/N=C(\c2ccccc2)c2ccccn2)nc1 ?
[reply] 30.2382

[ask] And for Cc1cc(=O)n(C)c2cc(N3C(=O)CC[C@H](NS(=O)(=O)CC(C)C)[C@H]3c3ccc(Cl)cc3)ccc12 ?
[reply] 26.2781

====

- Test system: histone modifications in 2102EP cells
- PROTOCOL: Mass spectrometry analysis of histone modifications (Mod Spec)
- Type: cell-based, Human
- STATED_CONDITIONS: 2102EP cells; Mod Spec raw data
Label Satisfied when H2A1: K15AC, % of peptide pool is at or above 0.007%; otherwise label Not satisfied.

// known answers, use as guide
| SMILES_REPRESENTATION | CLASSIFICATION |
| --- | --- |
| CN1C(=O)[C@@]23C[C@]4([C@]56C[C@@]78SS[C@@](CO)(C(=O)N7[C@H]5Nc5ccccc56)N(C)C8=O)c5ccccc5N[C@@H]4N2C(=O)[C@]1(CO)SS3 | Satisfied |
| Cc1ncsc1-c1ccc(CNC(=O)[C@@H]2C[C@@H](O)CN2C(=O)[C@@H](NC(=O)COCCOCCOCCNC(=O)C[C@@H]2N=C(c3ccc(Cl)cc3)c3c(sc(C)c3C)-n3c(C)nnc32)C(C)(C)C)cc1 | Not satisfied |
| O=C1C(=Cc2cccnc2)C(=O)c2ccccc21 | Not satisfied |

[ask] Record Cn1cc(CNCC2CCN(c3ncc(C(=O)NO)cn3)CC2)c2ccccc21 ; criterion: H2A1: K15AC, % of peptide pool no lower than 0.007%. Met?
[reply] Satisfied

[ask] And for CCCc1cc(C)[nH]c(=O)c1CNC(=O)c1cc(-c2ccnc(N3CCN(C)CC3)c2)cc2c1cnn2C(C)C ?
[reply] Satisfied

[ask] And for Cc1cc(=O)n(C)c2cc(N3C(=O)CC[C@H](NS(=O)(=O)CC(C)C)[C@H]3c3ccc(Cl)cc3)ccc12 ?
[reply] Not satisfied

====

- Tested on: histone modifications in 2102EP cells
- PROTOCOL: Mass spectrometry analysis of histone modifications (Mod Spec)
- Type: cell-based, Human
- STATED_CONDITIONS: 2102EP cells; Mod Spec raw data
READOUT_TYPE: H1.4: K25ME1, % of peptide pool (%)
Quick reminder: number only, in %, skip the unit.

| SMILES_REPRESENTATION | EXPERIMENTAL_TARGET | READOUT_TYPE | UNIT_LABEL | ENDPOINT_RESULT |
| --- | --- | --- | --- | --- |
| CN1C(=O)[C@@]23C[C@]4([C@]56C[C@@]78SS[C@@](CO)(C(=O)N7[C@H]5Nc5ccccc56)N(C)C8=O)c5ccccc5N[C@@H]4N2C(=O)[C@]1(CO)SS3 | histone modifications in 2102EP cells | H1.4: K25ME1, % of peptide pool | % | 2.019 |

[ask] histone modifications in 2102EP cells / H1.4: K25ME1, % of peptide pool / Cc1ncsc1-c1ccc(CNC(=O)[C@@H]2C[C@@H](O)CN2C(=O)[C@@H](NC(=O)COCCOCCOCCNC(=O)C[C@@H]2N=C(c3ccc(Cl)cc3)c3c(sc(C)c3C)-n3c(C)nnc32)C(C)(C)C)cc1 : value?
[reply] 2.068

[ask] And for CCCc1cc(C)[nH]c(=O)c1CNC(=O)c1cc(-c2ccnc(N3CCN(C)CC3)c2)cc2c1cnn2C(C)C ?
[reply] 2.263

Source: paper PMC8742467
